Tested on: HepG2
protocol-description: Cytotoxicity against human HepG2 cells assessed as reduction in cell viability at 50 uM after 24 hrs by WST8 assay
Assay type: cell-based
condition-label: hepg2, 24 h
metric-name: Activity

Here are 7 compounds together with their reported answers.
Task item: Look up Activity for this compound: `COc1ccc(S(=O)(=O)Nc2cc3c(C(=O)NNc4ccccc4)c(C)n(S(=O)(=O)c4ccc(OC)cc4)c3c3ccccc23)cc1`
Reply: Non-Toxic

Task item: Look up Activity for this compound: `COc1ccc(S(=O)(=O)N(CC(=O)O)c2ccc(N(CC(=O)O)S(=O)(=O)c3ccc(OC)cc3)c3ccccc23)cc1`
Reply: Non-Toxic

Task item: Look up Activity for this compound: `CCOc1ccc(S(=O)(=O)Nc2cc3c(C(=O)NO)c(C)n(S(=O)(=O)c4ccc(OCC)cc4)c3c3ccccc23)cc1`
Reply: Non-Toxic

Task item: Look up Activity for this compound: `COc1ccc(S(=O)(=O)Nc2cc3c(C(=O)NNc4ccc([N+](=O)[O-])cc4)c(C)n(S(=O)(=O)c4ccc(OC)cc4)c3c3ccccc23)cc1`
Reply: Toxic

Task item: Look up Activity for this compound: COc1cccc2c1C(=O)c1c(O)c3c(c(O)c1C2=O)C[C@@](O)(C(=O)CO)C[C@@H]3O[C@H]1C[C@H](N)[C@H](O)[C@H](C)O1 [DOXORUBICIN]
Reply: Toxic

Task item: Look up Activity for this compound: `CCOc1ccc(S(=O)(=O)Nc2cc3c(C(=O)NN)c(C)n(S(=O)(=O)c4ccc(OCC)cc4)c3c3ccccc23)cc1`
Reply: Non-Toxic

Task item: Look up Activity for this compound: `COc1ccc(NNC(=O)c2c(C)n(S(=O)(=O)c3ccc(OC)cc3)c3c2cc(NS(=O)(=O)c2ccc(OC)cc2)c2ccccc23)cc1`
Reply: Non-Toxic

Others:
Task item: Look up Activity for this compound: `CNNC(=O)c1c(C)n(S(=O)(=O)c2ccc(OC)cc2)c2c1cc(NS(=O)(=O)c1ccc(OC)cc1)c1ccccc12`
Reply: Non-Toxic
